SYSTEM_TESTED: NAD-dependent protein deacetylase sirtuin-2 (Homo sapiens)
TEST: Inhibition of human N-terminal His6-SUMO-tagged SIRT2 catalytic domain (43 to 356 residues) deacetylase activity expressed in Escherichia coli using alpha-tubulin-acetylLys40 peptide as substrate at 100 uM after 45 mins in presence of NAD+ by pNCA/GDH-based microplate spectrophotometric analysis
Calls of active or inactive are those of the source. The rule behind the calls is not given here.
Would you mind answering with one of these outcomes? active, inactive

Please review the following examples before continuing.
Clc1ccc(-c2noc(CN3CCN(c4ccccc4)CC3)n2)cc1    active
Cc1ccc(-c2noc(CCCBr)n2)cc1    active
OCCN1CCN(CCCc2nc(-c3ccccc3)no2)CC1    inactive
O=[N+]([O-])c1ccc(-c2noc(CN3CCCC3)n2)cc1    inactive
OCC1CCN(Cc2nc(-c3ccc(Cl)cc3)no2)CC1    active
Clc1ccc(-c2noc(CN3CCCCC3)n2)cc1    active
Clc1ccc(-c2noc(CN3CCOCC3)n2)cc1    active
CN1CCN(Cc2nc(-c3ccc(Cl)cc3)no2)CC1    active

Q: Returns: the outcome recorded for O=[N+]([O-])c1ccc(-c2noc(CCCBr)n2)cc1 in this assay.
A: active

Q: State the result this test recorded for Clc1ccc(-c2noc(CN3CCCC3)n2)cc1 .
A: active

Just for reference, ChEMBL document CHEMBL4007450 is where these values come from.
